Value source: patent US20250074911A1

target: BTK C481S (Homo sapiens (Human), UniProt Q06187, C481S); assay: Binding kinetics measurements (Surface Plasmon Resonance) on BTK C481S; settings: target residence time for BTK C481S, SPR
Sequence (Q06187 whole entry C481S): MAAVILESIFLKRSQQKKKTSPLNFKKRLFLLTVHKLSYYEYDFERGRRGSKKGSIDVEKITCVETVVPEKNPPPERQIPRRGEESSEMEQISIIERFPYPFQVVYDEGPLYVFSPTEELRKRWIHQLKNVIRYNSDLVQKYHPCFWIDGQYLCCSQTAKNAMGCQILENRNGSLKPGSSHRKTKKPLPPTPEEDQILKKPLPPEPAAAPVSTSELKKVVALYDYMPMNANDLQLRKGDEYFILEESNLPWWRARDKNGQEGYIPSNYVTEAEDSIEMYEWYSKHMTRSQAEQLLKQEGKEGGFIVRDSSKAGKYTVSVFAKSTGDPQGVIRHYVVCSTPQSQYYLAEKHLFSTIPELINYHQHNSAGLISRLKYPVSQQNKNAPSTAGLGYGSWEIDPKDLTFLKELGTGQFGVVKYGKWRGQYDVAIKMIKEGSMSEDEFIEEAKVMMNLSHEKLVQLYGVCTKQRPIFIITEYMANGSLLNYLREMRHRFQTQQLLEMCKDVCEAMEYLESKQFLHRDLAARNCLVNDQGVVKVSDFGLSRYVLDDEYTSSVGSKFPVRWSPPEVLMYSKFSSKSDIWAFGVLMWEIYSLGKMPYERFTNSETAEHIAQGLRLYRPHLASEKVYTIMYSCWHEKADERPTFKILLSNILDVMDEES
The entries below are paired with their reported Tau (h) BTK C418S (Act).

| Molecule | Tau (h) BTK C418S (Act) |
| --- | --- |
| Nc1ncc2n3c(nc(-c4ccc(C(=O)Nc5cc(C(F)(F)F)ccn5)cc4)c13)[C@@H]1CC[C@H](C1)NC(=O)CCOCC/C=C/2 [Example 202] | 3.15 |
| Nc1ncc2c3c1c(-c1ccc(C(=O)Nc4cc(C(F)(F)F)ccn4)cc1)nn3[C@@H]1CCC[C@H](C1)NC(=O)COC/C=C/2 [Example 49] | 4.75 |
| C[C@@H]1CC(=O)N[C@@H]2CCC[C@H](C2)c2nc(-c3ccc(C(=O)Nc4cc(C(F)(F)F)ccn4)cc3)c3c(N)ncc(n23)/C=C/CCN1 [Example 179] | 4.06 |
| Nc1ncc2n3c(nc(-c4ccc(C(=O)Nc5cc(C(F)(F)F)ccn5)cc4)c13)[C@@H]1CCC[C@H](C1)NC(=O)CCCC/C=C/2 [Example 130] | 3.83 |

====

test system: wt-TMD8 diffuse large B-cell lymphoma cells; assay: Cell proliferation assay wt-TMD8 (ATPlite, 120 hours); type: cell-based; details: B-cell; wt-TMD8 cells, 120 hours, ATPlite; read-out: IC50 wt-TMD8
Experimental Readout: IC50

| Compound | Value |
| --- | --- |
| Nc1ncc2c3c1c(-c1ccc(C(=O)Nc4cc(C(F)(F)F)ccn4)cc1)nn3[C@@H]1CCC[C@H](C1)C(=O)NCCCCCCCC2 [Example 119] | < 100 nM |
| C[C@@H]1CC(=O)N[C@@H]2CCC[C@H](C2)n2nc(-c3ccc(C(=O)Nc4cc(C(F)(F)F)ccn4)cc3)c3c(N)ncc(c32)/C=C/CCN1 [Example 45] | < 100 nM |
| COc1ccc(F)cc1C(=O)NCc1ccc(-c2nc3n4c(cnc(N)c24)/C=C/CCOCCC(=O)N[C@@H]2CCC[C@@H]3C2)cc1 [Example 210] | < 100 nM |

====

target: full-length BTK C481S enzyme (Homo sapiens (Human), UniProt Q06187, C481S); assay: Biochemical kinase assay BTK C481S (IMAP)
pIC50: −log10 of the molar value.
The entries below are paired with their reported pIC50.

| Compound | pIC50 |
| --- | --- |
| C[C@@H]1CCn2nc(-c3ccc(C(=O)Nc4cc(C(F)(F)F)ccn4)cc3)c3c(N)ncc(c32)/C=C/CCCCCCCCC(=O)N1 [Example 64] | > 8.30 |
| Nc1ncc2c3c1c(-c1ccc(C(=O)Nc4cc(C(F)(F)F)ccn4)cc1)nn3[C@@H]1CCC[C@H](C1)NC(=O)CCCNC/C=C\C2 [Example 108] | > 8.30 |
| C[C@@H]1CCn2nc(-c3ccc(C(=O)Nc4cc(C(F)(F)F)ccn4)cc3)c3c(N)ncc(c32)/C=C/CCCCCCCC(=O)N1 [Example 63] | > 8.30 |
| Nc1ncc2c3c1c(-c1ccc(C(=O)Nc4cc(C(F)(F)F)ccn4)cc1)nn3[C@@H]1CCC[C@H](C1)NC(=O)CNC/C=C\C2 [Example 105] | 7.30 to 8.30 |

====

target: wt-BTK (Homo sapiens (Human), UniProt Q06187); assay: Binding kinetics measurements (Surface Plasmon Resonance) on wt-BTK; details: target residence time, SPR
Sequence (Q06187 whole entry): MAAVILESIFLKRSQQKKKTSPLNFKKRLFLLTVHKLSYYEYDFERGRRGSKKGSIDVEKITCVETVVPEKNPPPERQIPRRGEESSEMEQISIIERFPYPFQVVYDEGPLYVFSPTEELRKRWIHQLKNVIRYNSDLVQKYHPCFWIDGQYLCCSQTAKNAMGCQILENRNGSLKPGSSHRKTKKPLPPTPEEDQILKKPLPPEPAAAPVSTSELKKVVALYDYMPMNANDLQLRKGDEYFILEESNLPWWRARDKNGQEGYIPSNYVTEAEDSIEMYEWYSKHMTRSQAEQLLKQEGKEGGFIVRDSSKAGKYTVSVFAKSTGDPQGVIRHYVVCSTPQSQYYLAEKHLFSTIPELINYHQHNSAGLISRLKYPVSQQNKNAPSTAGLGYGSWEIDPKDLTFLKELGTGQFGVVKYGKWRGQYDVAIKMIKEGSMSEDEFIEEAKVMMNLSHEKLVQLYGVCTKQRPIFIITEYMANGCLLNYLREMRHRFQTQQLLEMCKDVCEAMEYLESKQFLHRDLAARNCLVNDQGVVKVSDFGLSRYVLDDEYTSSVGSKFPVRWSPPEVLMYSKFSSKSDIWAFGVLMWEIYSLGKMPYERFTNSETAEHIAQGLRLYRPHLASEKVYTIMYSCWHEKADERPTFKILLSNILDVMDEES
The entries below are paired with their reported Tau (h) wt-BTK (Act).
Experimental Readout: Tau (h) wt-BTK (Act)

| Compound | Readout Relation | Value |
| --- | --- | --- |
| N#Cc1ccnc(NC(=O)c2ccc(-c3nn4c5c(cnc(N)c35)/C=C/CCN3CC[C@H]3C(=O)N[C@@H]3CCC[C@@H]4C3)cc2)c1 | = | 3.24 |
| Nc1ncc2c3c1c(-c1ccc(C(=O)Nc4cc(C(F)(F)F)ccn4)cc1)nn3[C@@H]1CCC[C@H](C1)NC(=O)C1CCN1CC/C=C/2 (some centres unmarked) | = | 6.06 |
| COc1ccc(F)cc1C(=O)NCc1ccc(-c2nn3c4c(cnc(N)c24)/C=C/CCCCCC(=O)N[C@H](C)CC3)cc1 | = | 1.38 |
| Nc1ncc2n3c(nc(-c4ccc(C(=O)Nc5cc(C(F)(F)F)ccn5)cc4)c13)[C@@H]1CCC[C@H](C1)NC(=O)CCCC/C=C/2 | = | 2.86 |
| Nc1ncc2c3c1c(-c1ccc(C(=O)Nc4cc(C(F)(F)F)ccn4)cc1)nn3[C@@H]1CCC[C@H](C1)NC(=O)[C@H]1CN(C/C=C/2)CCN1 | > | 24 |

====

target: BTK T316A (Homo sapiens (Human), UniProt Q06187, T316A); experiment: Binding kinetics measurements (Surface Plasmon Resonance) on BTK T316A; conditions: target residence time, SPR
Sequence (Q06187 whole entry T316A): as the sequence (Q06187 whole entry) above, with T316A counted along it

| Smiles Record | Tau (h) BTK T316A (Act) |
| --- | --- |
| C[C@H]1CC(=O)N[C@@H]2CCC[C@H](C2)n2nc(-c3ccc(C(=O)Nc4cc(C(F)(F)F)ccn4)cc3)c3c(N)ncc(c32)/C=C/CN1C | 1.89 |
| C[C@@H]1CCn2nc(-c3ccc(C(=O)Nc4cc(C(F)(F)F)ccn4)cc3)c3c(N)ncc(c32)/C=C/CSCC(=O)N1 | 1.85 |
| C[C@H]1CC(=O)N[C@@H]2CCCC(C2)n2nc(-c3ccc(C(=O)Nc4cc(C(F)(F)F)ccn4)cc3)c3c(N)ncc(c32)/C=C/CCN1 | 2.48 |
| Nc1ncc2c3c1c(-c1ccc(C(=O)Nc4cc(C(F)(F)F)ccn4)cc1)nn3[C@@H]1CCC[C@H](C1)NC(=O)[C@H]1CN(C/C=C/2)CCN1 | 8.86 |
| Nc1ncc2c3c1c(-c1ccc(C(=O)Nc4ccccn4)cc1)nn3C1CCC[C@H](C1)NC(=O)CCCCC/C=C/2 | 2.66 |

====

The entries below are paired with their reported residence time.
biological target: BTK T474S (Homo sapiens (Human), UniProt Q06187, T474S); assay: Binding kinetics measurements (Surface Plasmon Resonance) on BTK T474S; details: SPR binding kinetics, BTK T474S; read-out: Tau (h) BTK T474S (Act); target residence time (converted)
Sequence (Q06187 whole entry T474S): as the sequence (Q06187 whole entry) above, with T474S counted along it

| Molecule | residence time / h |
| --- | --- |
| Nc1ncc2c3c1c(-c1ccc(C(=O)Nc4cc(C(F)(F)F)ccn4)cc1)nn3[C@@H]1CCC[C@H](C1)NC(=O)CCCOC/C=C/2 [Example 27] | 4.09 |
| N#Cc1ccnc(NC(=O)c2ccc(-c3nn4c5c(cnc(N)c35)/C=C/CCOCCC(=O)N[C@@H]3CCC[C@@H]4C3)cc2)c1 [Example 155] | 3.8 |
| C[C@@H]1CCn2nc(-c3ccc(C(=O)Nc4cc(C#N)ccn4)cc3)c3c(N)ncc(c32)/C=C/CCOCCC(=O)N1 [Example 153] | 1.97 |
| CC1NC/C=C/c2cnc(N)c3c(-c4ccc(C(=O)Nc5cc(C(F)(F)F)ccn5)cc4)nn(c23)[C@@H]2CCC[C@H](C2)NC1=O (single isomer, unassigned) [Example 146] | 2.69 |

====

target: BTK C481S (Homo sapiens (Human), UniProt Q06187, C481S); assay: Binding kinetics measurements (Surface Plasmon Resonance) on BTK C481S; conditions: target residence time for BTK C481S, SPR
Param threshold (3 h) applies to Tau (h) BTK C418S (Act); output met when value >= threshold, not met when value < threshold.

| Compound | Label |
| --- | --- |
| C[C@@H]1CCn2nc(-c3ccc(C(=O)Nc4cc(C(F)(F)F)ccn4)cc3)c3c(N)ncc(c32)/C=C/CO[C@H](C)C(=O)N1 | met |
| COc1ccc(F)cc1C(=O)NCc1ccc(-c2nn3c4c(cnc(N)c24)/C=C/CO[C@H](C)C(=O)N[C@@H]2CCC[C@@H]3C2)cc1 | not met |
| C[C@@H]1CCn2nc(-c3ccc(C(=O)Nc4cc(C#N)ccn4)cc3)c3c(N)ncc(c32)/C=C/CCOCCC(=O)N1 | not met |
| C[C@@H]1CCn2nc(-c3ccc(C(=O)Nc4cc(C(F)(F)F)ccn4)cc3)c3c(N)ncc(c32)/C=C/CSCC(=O)N1 | met |
| Nc1ncc2c3c1c(-c1ccc(C(=O)Nc4cc(C(F)(F)F)ccn4)cc1)nn3[C@@H]1CCC[C@H](C1)NC(=O)CCCCCC2 | not met |
| Nc1ncc2c3c1c(-c1ccc(C(=O)Nc4cc(C(F)(F)F)ccn4)cc1)nn3[C@@H]1CCCN(C1)C(=O)CCCCCC(O)/C=C/2 (stereo partly shown) | met |
| Nc1ncc2c3c1c(-c1ccc(C(=O)Nc4cc(C(F)(F)F)ccn4)cc1)nn3[C@@H]1CCC[C@H](C1)NC(=O)CNC[C@@H](O)/C=C/2 | not met |
